Reference for the values: the supplement of paper PMC9170038

Test system: MS2 coat protein
Assay: apparent KD of MS2 coat protein; designed switch direction (-1 OFF switch, 1 ON switch): 1; higher = weaker reporter binding
Details: input ligand: microRNA oligo, concentration not stated
observable: apparent KD of MS2 coat protein (nM)
Reply numerically in nM, unit not repeated.

UUGUUUCGUCAUUAACAUGAGGAUCACCCAUGUAUUGACCCAAAGGAUAUAUAUGUUUGUUUGUAAUAGAAGGUUGAUUGUUGU [JR_SSNG3_Sub091] (Eterna round: R96, puzzle: Same State NG 3)    16.8

Report apparent KD of MS2 coat protein for GCUCGACGUGUUGUCUACAUGAGGAUCACCCAUGUAGGUGCGGAGGAUAUCUACGUGUUUCAUGUAGAGAAGGUCGUGUCGAGC [SameState NG3 #89] (Eterna round: R96, puzzle: Same State NG 3) please.
55.3

Which apparent KD of MS2 coat protein value is on record for GGUAAGAACUAAGGAUAUUGAAUACAUAUGUUUAACAUGAGGAUCACCCAUGUGGGUUGCGGUGUCGAGAAGGUAGAAUAAUAG [Mat - same State NG 2 - JL mod - D102] (Eterna round: R96, puzzle: Same State NG 2) ?
166

Which measured apparent KD of MS2 coat protein value corresponds to CGUACACAUGAGGAUCACCCAUGUCAGAUUUGGUCAGGAUAUGGGCGGCAUCCGCUAUUGCCAGAAGGGACUGUUG [JR_SS001_Sub703] (Eterna round: R96, puzzle: Same State 1) ?
43.4

====

System: K4 kissing-loop RNA reporter;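 also: bound reporter read as fluorescence of individual clusters on recovered sequencing chips by microscopy, with normalized cluster intensities fitted with a binding model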
Test: apparent KD of K4 kissing-loop reporter; higher = weaker reporter binding
Details: Eterna round: R107; input ligand: FMN 200 uM
Response key: 1 (yes) means apparent KD of K4 kissing-loop reporter >= 200 nM; 0 (no) means apparent KD of K4 kissing-loop reporter < 200 nM.

AAGGCCACGAGAAGGAGCGUGUUGUGGAGUGAUGUUCCACUGUAGACCUAAGGUCUACAGGCACAGGUAGGUCGCUCGUGGUCAA [Omei KL Arginine B SS A v6]    0 (no)
ACGUAGUUCUAGGAUACCAGCCAAGGCGCAGGACAAAAGUCCUGCGUCGCCAGUGAUGUUGGCCCUUGGCAGCCUAGAACUACGA [Omei KL Theo B Exc B v12]    1 (yes)
UACUUUAAUUUAUAACUAUCUUUAUUUUGUCAGGAUAUCGUAUAGUCGAGAAGGGACUCUAUCAAGUGAUGUUUGAUAUAUCGUU [JR_SSFMNA_Sub025]    0 (no)
CUGGGUUGACGAAAAGUCAACAAAUGAGAAGGAGCGCACGAAAGUGCAGGUAGGUCGCUCAGUCCAGUGAUGUUGGAUCAUCCAG [#SwitchBubble 10 #K4Late]    1 (yes)
CCUAUCUCAUACGAUACCAGUGAAUAACCAGUGAUGUUGGAAUAACCAAGGAAUAUUUUACACCCUUGGCAGCGUAUGGGAUAGG [Ex Theophylline B K4 25]    1 (yes)

Shifting focus to the sequence that follows.
State whether the measured apparent KD of K4 kissing-loop reporter reaches 200 nM, counting equality as reaching it, for AAAAUAAACCAGUGAUGUUGGUAUCCGGAUACCAGCGAUAAUCAUCGCCCUUGGCAGCCGCGGACGUACAAAAUAAGUACGUCCU [MatMod 14 - Jieux - Same State - Theophylline A]
1 (yes)

====

Reported apparent KD of MS2 coat protein values for the following sequences.
System: MS2 coat protein
Assay: apparent KD of MS2 coat protein; designed switch direction (-1 OFF switch, 1 ON switch): -1; higher = weaker reporter binding
Conditions: Eterna round: R95; input ligand: none
Returns: string containing the number followed by the unit.

Would you please look over these solved cases?
CCAUCGUGUGUGAGGAUAUGCUGGUCCUUGGAUCAGCAGAAGGCACAUGAGGAUCACCCAUGUGAAAACGGUGG [Mat - Exclusion 4 - JL Mod - D86] (puzzle: Brourd's mod of Exclusion 4)    23.9 nM
CGAUGUCUUCGGACAUCGAACAUGAGGAUCACCCAUGUAUAGAGCAGAUCUUCAUGCAAGCUUUUUGCUCGUCUUAU [Sensor v3 - turn-off variant 1 - 47] (puzzle: Sensor v3, turn-off variant 1)    90.4 nM

What measured apparent KD of MS2 coat protein goes with CGUGACUGAGGAUAUCUAUAAUAUCACAUGAGGAUCACCCAUGUCCAGCGAAAGCUGGAGGGAGAAGGCAGUCACG [Fiskers Ex 5 - 29] (puzzle: Exclusion 5) ?
75.3 nM

Look at this sequence and give its reported apparent KD of MS2 coat protein. UUUUAACAUGAGGAUCACCCAUGUGAGGAUAUCAUUUUUUUUUUUUUUUUUUUUUUUUUGAGAAGGCACAUUUU [My solution] (puzzle: Exclusion 1)
14.2 nM

Fill blank: measured apparent KD of MS2 coat protein of the sequence CUGGUCCGAGGAUAUAUUAAGUGAUACAUGAGGAUCACCCAUGUUAUUUAAUGGAUGUAAAUAGAAGGCGGACUAG [Mat - Exclusion 5 - JL mod - D70] (puzzle: Exclusion 5) is ____.
44.6 nM

====

Test system: MS2 coat protein
Assay: apparent KD of MS2 coat protein; designed switch direction (-1 OFF switch, 1 ON switch): -1; higher = weaker reporter binding
Conditions: input ligand: FMN 200 uM
observable: apparent KD of MS2 coat protein
Answers without a unit are incomplete; give the number and then its unit.

Worked cases, apparent KD of MS2 coat protein given:
GGCUCGCCUCACAUGAGGAUCACCCAUGUACAAAACAAGAGGCAGGAUAUGGGCCGCGCAGCGGGCCAGAAGGGCCGCAUGGGU [Edsodidige] (Eterna round: R96, puzzle: Exclusion NG 3)    0.0629 µM
AAGGGUGCUUUCAGAACGACAUGAGGAUCACCCAUGUAGACUGAGGAUAUCUACUUCUAAGGACGGGAGAAGGCAGUGUAAUGU [Ex NG3 #71] (Eterna round: R96, puzzle: Exclusion NG 3)    0.0255 µM

Endpoint output: apparent KD of MS2 coat protein of GUUUCGAGACGGAGAUCCGACAUGAGGAUCACCCAUGUCUCACAAGCUUUUUGCUCGUCUUAUACUCCUCUGUUCUC [Elimod 48 - Jieux - Sensor, turn-off variant 1] (Eterna round: R97, puzzle: Sensor, turn-off variant 1) . Value?
0.0156 µM

Reported apparent KD of MS2 coat protein for GGUCGACAUGAGGAUCACCCAUGUCAGGAUAUCUACAUUGAAGCUUCGGCUUCAAUGUAGAGAAGGGACAUAAU [E1/14-B1] (Eterna round: R97, puzzle: Exclusion 1) : what is it?
0.0353 µM

Return reported apparent KD of MS2 coat protein; argument: UACAUGAGGAUCACCCAUGUUUUGUCGUGUAUGGUAUUUAUCUAGGAUAUCAAUUGAAUUAUUUAUGAGAAGGAGAAUAUUAAU [JMF's solution 58] (Eterna round: R96, puzzle: Exclusion NG 3)
0.042 µM

====

Tested on: MS2 coat protein
Test: apparent KD of MS2 coat protein, switch OFF state (with FMN for OFF switches, without FMN for ON switches); designed switch direction (-1 OFF switch, 1 ON switch): 1; higher = weaker reporter binding
Details: FMN input: 0 or 200 uM; Eterna round: R93 (includes R88 designs)
observable: apparent KD of MS2 coat protein (µM)
Field: numeric (µM). Do not append units.

Field: example entries. Status: answers known.
AAACUGGAGGACAAGGAUAUGUGCUCUACGACAUGAGGAUCACCCAUGUGAGACGUAGUAGUGAAACAGAAGGUGUCCUAUUGUU [Qulece]    0.0274
CUUAGGAAGAGAGAGGAUAUCCAAAGGAAAACAUGAGGAUCACCCAUGUAAAAGGUAGGAAAUUGGGAGAAGGCUCAAGAGAGAG [salish99-ss2-080]    0.0318
AGAAAACAUGAGGAUCACCCAUGUGAUAAUAUGGGAGGAUAUACGGAGACGAAAGUCGACGUAGAAGGCCUAAAGA [Garnet 49]    0.0828
AAAAAACAUGAGGAUCACCCAUGUAAAAAAAACACAGGAUAUCCCUUUUUUAAAAAAAAAGGAGAAGGGUGAAAAA [Nob's Hobby 7 - Jieux - Same State 1]    0.0315

Tell me the measured apparent KD of MS2 coat protein of AAAACACAUGAGGAUCACCCAUGUAGAAAUACUGGAGGAUAUGCUAAAACGAAAGACAAUGUAGAAGGCCGAAAAG [saturn 11] , please.
0.208

For the sequence shown here, AGAAAACAUGAGGAUCACCCAUGUAGAAACAUGGGAGGAUAUACAAAGACGAAAGUCAAAGUAGAAGGCCUAAAGA [Mat - Same State 1 - Mod - D161] , give the reported apparent KD of MS2 coat protein.
0.152

====

Test system: MS2 coat protein
Assay: apparent KD of MS2 coat protein; designed switch direction (-1 OFF switch, 1 ON switch): 1; higher = weaker reporter binding
Conditions: Eterna round: R98; input ligand: none
Mark False for apparent KD of MS2 coat protein values under 1000 nM, and True for everything at or above.

These recorded examples may help you get a feel for the data.
AUAAUAACUUGAGGAUAUCGAGUGGAAUACACUCGAGAAGGCAGGGAAACCUGAGGAUCACCCAGGUAAAUAAUAAUAAUAAUA [Same State NG1 - A3C, U17G Submission 1C]    False
GCAGAAGGUGCGGAGGAUCACCCUGUAAGGAUAUGCAUUAGCAAGGAUAUACAGAGGAUCACCCUGUAGAAGGUGCACUUCUGA [pwkr2 ssNG3 DX.8]    False
UAGAUAUGGUGAGGAUAUGCAAAGGAUCACCUUGUAGAAGGCAUCAGGGUAGAAGGUGCAAGGAUCACCUGUAAGGAUAUAUCC [pwkr2 ssNG1 DX.32]    True
ACGUCCCGCAGAGGAUAUGUUGUUCGGCCUACAUGAGGAUCACCCAUGUCAAAGGGCUGAUCCCGACAGAAGGCUGAAGGAUAC [Qudiator]    False

Could you now consider this next sequence?
In plain terms: is recorded apparent KD of MS2 coat protein at least 1000 nM for UCACUCACGUCAGGAUAUGGAUCGGAAAACGAUCCAGAAGGGACCUGCAAACUUGAGGAUCACCCAGGUUCCAAUAACGAGUGA [SameSame 12 - Jieux - Same State NG 1] ?
False
